Tested on: HCT116;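 further: HCT116 colorectal carcinoma cells screened at five concentrations per compound, luminescent viability scaled between DMSO wells and empty wells on each plate, curves fitted per compound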
Assay: AC50 cell viability (CellTiter-Glo); higher = less potent
Details: 48 h
MEASURE: log10 AC50 cell viability (log10 of the value in µM)
Log scale reminder: AC50 cell viability in µM, then log10 taken.

Consider the worked cases shown below.
COMPOUND: O=C(NCC(=O)N1CC[C@H](NC2CCC(O)(c3ccc(-c4ncccn4)cn3)CC2)C1)c1cccc(C(F)(F)F)c1 (stereo not given in full)
log10 AC50 cell viability: 0.77
--
COMPOUND: C[C@H](CN(C)C)Oc1nc(Nc2cc3cccc(Cl)c3cn2)cnc1C#N
log10 AC50 cell viability: 0.52
--
COMPOUND: CC(C)(C)c1cc(NC(=O)Nc2ccc(-c3cn4c(n3)sc3cc(OCCN5CCOCC5)ccc34)cc2)no1
log10 AC50 cell viability: 1.12
--
COMPOUND: CC(NC1=CC=CC=C1)C\2=C\C(=C/N3C(=O)\C=C(/N=C23)N4CCOCC4)C (stereo not given)
log10 AC50 cell viability: 1.27

## Task For the compound ONC(=O)C1=CC=C(C=C1)C/2=N/C3=CC=CC=C3OC4=C2C=CC=C4 , what log10 AC50 cell viability is on record?
## Result 0.47

## Task For the compound CCC1=C2C=C(OC(=O)N3CCC(CC3)N4CCCCC4)C=CC2=NC\5=C1CN6C(=O)\C7=C(/C=C56)[C@@](O)(CC)C(=O)OC7 , what log10 AC50 cell viability is on record?
## Result 0.07

## Task For the compound CC[C@@](C)(Nc1ccnc(-c2c[nH]c3ncccc23)n1)C(=O)NCC(F)(F)F , what log10 AC50 cell viability is on record?
## Result 1.32
